Molecular target: MAGL (Homo sapiens, UniProt Q99685)
Sequence (Q99685 1-303): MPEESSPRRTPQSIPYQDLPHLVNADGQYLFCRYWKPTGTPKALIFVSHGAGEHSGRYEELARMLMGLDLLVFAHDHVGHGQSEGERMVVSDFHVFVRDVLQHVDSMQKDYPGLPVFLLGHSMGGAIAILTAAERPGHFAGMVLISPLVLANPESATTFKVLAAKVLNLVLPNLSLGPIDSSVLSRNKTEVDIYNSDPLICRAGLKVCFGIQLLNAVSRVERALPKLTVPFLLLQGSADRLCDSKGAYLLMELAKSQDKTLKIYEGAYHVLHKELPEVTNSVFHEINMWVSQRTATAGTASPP
Experiment: In vitro competitive substrate hydrolysis enzyme activity assay (pNPA), HEK293 cell lysates
Type: biochemical
Design: expressed in transfected cells; host or cells: HEK293
Details: HEK293 lysate
Description: HEK293 cell lysates expressing recombinant human MAGL enzyme and 4-nitrophenyl acetate (pNPA) substrate were diluted separately in 50 mM HEPES (pH 7.0) containing 200 mM KCl and 1 mM EDTA. […] After 30 min, 2×pNPA substrate (50 μL, 2.5 mM) was added and the rate of substrate turnover was monitored by measuring the increase in absorbance at wavelength 405 nm for 20 minutes at 25° C. using a Biotek Neo2 plate reader. […]
Quantity kind: IC50 (µM)
Numbers only, in µM.

Example entries begin here.
O=C(Nc1cncc(F)c1)C1CC12CCN(C(=O)OC(C(F)(F)F)C(F)(F)F)CC2 (single isomer, unassigned) [Example 39]
0.319
O=C(OC(C(F)(F)F)C(F)(F)F)N1CCC2(CC1)CC2C(=O)N1CCn2cc(C(F)(F)F)nc2C1 (single isomer, unassigned) [Example 52]
0.155
CN(C(=O)C1CC12CCN(C(=O)OC(C(F)(F)F)C(F)(F)F)CC2)c1ccccn1 (single isomer, unassigned) [Example 46]
0.133
O=C(Nc1ccccn1)C1CC12CCN(C(=O)OC(C(F)(F)F)C(F)(F)F)CC2 (single isomer, unassigned) [Example 49]
0.003
CN(C(=O)C1CC12CCN(C(=O)OC(C(F)(F)F)C(F)(F)F)CC2)c1cccnc1 (single isomer, unassigned) [Example 42]
0.243

Could you report IC50 for every entry in the following list?
1. CN(C(=O)[C@H]1CC12CCN(C(=O)OC(C(F)(F)F)C(F)(F)F)CC2)c1cnccn1 (single isomer, unassigned)
2. O=C(Nc1cccnn1)[C@H]1CC12CCN(C(=O)OC(C(F)(F)F)C(F)(F)F)CC2
3. O=C(Nc1ccc(C(F)(F)F)nc1)C1CC12CCN(C(=O)OC(C(F)(F)F)C(F)(F)F)CC2 (single isomer, unassigned) [Example 79]
4. Cc1ccc(NC(=O)C2CC23CCN(C(=O)OC(C(F)(F)F)C(F)(F)F)CC3)cn1 (single isomer, unassigned) [Example 82]
5. O=C(Nc1cccc(C(F)(F)F)n1)C1CC12CCN(C(=O)OC(C(F)(F)F)C(F)(F)F)CC2 (single isomer, unassigned) [Example 72]
6. O=C(NC(=O)C1CC12CCN(C(=O)OC(C(F)(F)F)C(F)(F)F)CC2)c1ccccc1 (single isomer, unassigned) [Example 94]
7. O=C(Nc1cnc(C(F)(F)F)nc1)C1CC12CCN(C(=O)OC(C(F)(F)F)C(F)(F)F)CC2 (single isomer, unassigned) [Example 99]

[0.102, 0.00826, 0.851, 0.118, 0.00617, 0.00323, 0.00552]

Find the measured IC50 of O=C(OC(C(F)(F)F)C(F)(F)F)N1CCC2(CC1)CC2C(=O)N1CCc2cnc(C(F)(F)F)nc2C1 (single isomer, unassigned) [Example 58] and report it.
0.138

###

biological target: MAGL (Homo sapiens); assay: In vitro competitive activity-based protein profiling, PC3 human cell membrane proteomes; assay type: biochemical; set-up: endogenous in cells; host or cells: PC3 human cells (membrane proteome); conditions: human PC3 membrane proteome
Quantity kind: IC50 (µM)
One number for each entry, in µM.

Example entries begin here.
Cn1nccc1NC(=O)C1CC12CCN(C(=O)OC(C(F)(F)F)C(F)(F)F)CC2 (single isomer, unassigned) [Example 136]
0.34
O=C(Nc1ccc(-n2cccn2)nc1)C1CC12CCN(C(=O)OC(C(F)(F)F)C(F)(F)F)CC2 (single isomer, unassigned) [Example 30]
0.39

Okay, next one:
Find the measured IC50 of O=C(Nc1ccccc1)[C@H]1CC12CCN(C(=O)OC(C(F)(F)F)C(F)(F)F)CC2 (single isomer, unassigned) [Example 141] and report it.
0.00091

###

Target: MAGL (Homo sapiens)
Sequence (Q99685 1-303): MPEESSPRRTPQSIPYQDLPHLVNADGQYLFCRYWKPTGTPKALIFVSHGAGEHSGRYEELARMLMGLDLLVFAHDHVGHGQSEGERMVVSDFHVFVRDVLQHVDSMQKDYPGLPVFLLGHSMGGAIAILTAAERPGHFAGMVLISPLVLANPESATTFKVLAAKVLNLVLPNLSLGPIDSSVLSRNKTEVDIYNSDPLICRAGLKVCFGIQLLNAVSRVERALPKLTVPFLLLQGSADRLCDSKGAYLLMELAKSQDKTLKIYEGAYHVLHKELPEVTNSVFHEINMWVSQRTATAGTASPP
Experiment: In vitro competitive activity-based protein profiling, PC3 human cell membrane proteomes
Assay type: biochemical
Design: endogenous in cells; host or cells: PC3 human cells (membrane proteome)
Settings: human PC3 membrane proteome
Kindly state IC50 for each of the entries shown.
Numbers only, in µM.

Example entries begin here.
O=C(NCc1cccnc1)C1CC12CCN(C(=O)OC(C(F)(F)F)C(F)(F)F)CC2 (single isomer, unassigned) [Example 87]
0.2
Cc1ccc(NC(=O)[C@@H]2CC23CCN(C(=O)OC(C(F)(F)F)C(F)(F)F)CC3)nn1 (single isomer, unassigned) [Example 105]
0.1
O=C(Nc1ccc(C2CC2)nc1)[C@@H]1CC12CCN(C(=O)OC(C(F)(F)F)C(F)(F)F)CC2 (single isomer, unassigned) [Example 162]
0.16
O=C(Nc1ccnnc1)C1CC12CCN(C(=O)OC(C(F)(F)F)C(F)(F)F)CC2 (single isomer, unassigned) [Example 108]
0.013
O=C(NC1CCOCC1)[C@H]1CC12CCN(C(=O)OC(C(F)(F)F)C(F)(F)F)CC2 [Example 8]
0.0657

Jot down IC50 (MAGL (Homo sapiens)) of O=C(NCC1CCOCC1)[C@H]1CC12CCN(C(=O)OC(C(F)(F)F)C(F)(F)F)CC2 (single isomer, unassigned) [Example 117] .
0.0047

###

biological target: MAGL (Homo sapiens, UniProt Q99685); assay: In vitro competitive activity-based protein profiling, PC3 human cell membrane proteomes; assay type: biochemical; set-up: endogenous in cells; host or cells: PC3 human cells (membrane proteome); conditions: human PC3 membrane proteome
Quantity kind: IC50 (µM)
Answers are plain numbers, in µM.

O=C(Nc1cccc(F)c1)C1CC12CCN(C(=O)OC(C(F)(F)F)C(F)(F)F)CC2 (single isomer, unassigned) [Example 148]
0.091
O=C(Nc1cncnc1)C1CC12CCN(C(=O)OC(C(F)(F)F)C(F)(F)F)CC2 (single isomer, unassigned) [Example 96]
0.0193

Could you report IC50 for every entry in the following list?
1. O=C(Nc1ccncc1)C1CC12CCN(C(=O)OC(C(F)(F)F)C(F)(F)F)CC2 (single isomer, unassigned) [Example 24]
2. CN(C(=O)C1CC12CCN(C(=O)OC(C(F)(F)F)C(F)(F)F)CC2)c1cccnn1 (racemic) [Example 188]

0.0024
0.12

###

Kindly state Scaled-up unbound CLint for each of the entries shown.
tested on: cryopreserved human hepatocytes; assay: In vitro human hepatocyte stability; type: in vitro ADME; details: human hepatocytes 0.5×10^6 cells/mL, 1 μM
Give bare numbers, in mL/min/kg.

Cn1nccc1NC(=O)C1CC12CCN(C(=O)OC(C(F)(F)F)C(F)(F)F)CC2 (single isomer, unassigned)
16.79
Cn1ccc(NC(=O)C2CC23CCN(C(=O)OC(C(F)(F)F)C(F)(F)F)CC3)n1 (single isomer, unassigned)
9.51
CC1(NC(=O)C2CC23CCN(C(=O)OC(C(F)(F)F)C(F)(F)F)CC3)CCOCC1 (single isomer, unassigned)
44.18
O=C(Nc1cccnc1)[C@H]1CC12CCN(C(=O)OC(C(F)(F)F)C(F)(F)F)CC2 (single isomer, unassigned)
34.8

Could you report Scaled-up unbound CLint for every entry in the following list?
1. O=C(Nc1cncnc1)C1CC12CCN(C(=O)OC(C(F)(F)F)C(F)(F)F)CC2 (single isomer, unassigned)
2. O=C(NC1CCOCC1)[C@H]1CC12CCN(C(=O)OC(C(F)(F)F)C(F)(F)F)CC2

1: 17.09; 2: 7.75

###

Kindly state IC50 for each of the entries shown.
biological target: MAGL (Homo sapiens, UniProt Q99685); assay: In vitro competitive activity-based protein profiling, PC3 human cell membrane proteomes; type: biochemical; parameters: endogenous in cells; host or cells: PC3 human cells (membrane proteome); settings: human PC3 membrane proteome
Numbers only, in µM.

Could you report IC50 for every entry in the following list?
1. O=C(Nc1ccnc(C(F)(F)F)n1)[C@H]1CC12CCN(C(=O)OC(C(F)(F)F)C(F)(F)F)CC2 (single isomer, unassigned)
2. O=C(NC(=O)C1CC12CCN(C(=O)OC(C(F)(F)F)C(F)(F)F)CC2)C1CCCCC1 (single isomer, unassigned) [Example 91]
3. O=C(Nc1ccc(-n2cccn2)nc1)C1CC12CCN(C(=O)OC(C(F)(F)F)C(F)(F)F)CC2 (single isomer, unassigned) [Example 29]
4. O=C(Nc1ccncc1)C1CC12CCN(C(=O)OC(C(F)(F)F)C(F)(F)F)CC2 (single isomer, unassigned) [Example 23]
5. O=C(NCc1cccnc1)C1CC12CCN(C(=O)OC(C(F)(F)F)C(F)(F)F)CC2 (single isomer, unassigned) [Example 88]

[0.001, 0.0037, 0.003, 0.2, 0.0325]

Could you report IC50 for every entry in the following list?
1. Cc1cnc(NC(=O)C2CC23CCN(C(=O)OC(C(F)(F)F)C(F)(F)F)CC3)cn1 (single isomer, unassigned) [Example 111]
2. Cc1ccc(NC(=O)C2CC23CCN(C(=O)OC(C(F)(F)F)C(F)(F)F)CC3)cc1 (single isomer, unassigned) [Example 145]

0.074
0.27

Jot down IC50 (MAGL (Homo sapiens, UniProt Q99685)) of CP(C)(=O)c1ccc(NC(=O)C2CC23CCN(C(=O)OC(C(F)(F)F)C(F)(F)F)CC3)cn1 (single isomer, unassigned) [Example 21] .
0.317
